# tested on: squalene synthase (Homo sapiens, UniProt P37268)
# Construct: A microsome fraction was prepared from human-hepatoma(Hep G2) cells; endogenous in cells; host or cells: Hep G2 (human hepatoma) cells, washed microsome fraction
# method summary: Inhibitory activities against squalene synthase
# Type: biochemical
# condition description: microsome fraction from human hepatoma (Hep G2) cells; 10 μM [3H]-farnesyl pyrophosphate; pH 7.4; 37° C., 20 minutes; read-out: 50% inhibitory concentration against squalene synthase activity (IC50)
# Protocol: Inhibitory activities against squalene synthase (1) Preparation of a microsome fraction A microsome fraction was prepared from human-hepatoma(Hep G2) cells by the method of Shechter et al disclosed in J. Biol. Chem., 267, 8628 (1992). Namely, Hep G2 cells were homogenized in the presence of a 0.3M sucrose-1 mM DTT-1 mM EDTA-10 mM Hepes buffer solution (pH 7.4) and various protease inhibitors, and subjected to centrifugal separation at 2000×g for 5 minutes and 10000×g for 15 minutes. […]
In this section we review reported IC50 values for a set of molecules.
parameter measured: IC50 (nM)

C[C@@H]([C@@H](Cc1ccc(Cl)c(Cl)c1)c1ccc(-c2ccccc2)cc1)N(C)C(=O)C[C@@H](CC(=O)O)C(=O)O; 3
C[C@@H](NC(=O)CC(CC(=O)O)C(=O)O)[C@H](Cc1ccc(Cl)cc1)c1ccc(-c2ccccc2)c(F)c1 (relative stereo); 5.4
C[C@@H](NC(=O)CC(CC(=O)O)C(=O)O)[C@@H](/C=C/c1ccc2ccccc2c1)Cc1ccc(Cl)c(Cl)c1 (relative stereo); 1.7
CC(CC(=O)O)CC(=O)N[C@H](C)[C@@H](/C=C/c1ccc2ccccc2c1)Cc1ccc(Cl)c(Cl)c1 (relative stereo); 3.1
C[C@H](NC(=O)C[C@@H](CC(=O)O)C(=O)O)[C@@H](Cc1ccc(Cl)c(Cl)c1)OC(=O)c1ccc2ccccc2c1; 0.5

====

# tested on: squalene synthase (Homo sapiens, UniProt P37268)
# Construct: A microsome fraction was prepared from human-hepatoma(Hep G2) cells; endogenous in cells
# Sequence (P37268 1-417): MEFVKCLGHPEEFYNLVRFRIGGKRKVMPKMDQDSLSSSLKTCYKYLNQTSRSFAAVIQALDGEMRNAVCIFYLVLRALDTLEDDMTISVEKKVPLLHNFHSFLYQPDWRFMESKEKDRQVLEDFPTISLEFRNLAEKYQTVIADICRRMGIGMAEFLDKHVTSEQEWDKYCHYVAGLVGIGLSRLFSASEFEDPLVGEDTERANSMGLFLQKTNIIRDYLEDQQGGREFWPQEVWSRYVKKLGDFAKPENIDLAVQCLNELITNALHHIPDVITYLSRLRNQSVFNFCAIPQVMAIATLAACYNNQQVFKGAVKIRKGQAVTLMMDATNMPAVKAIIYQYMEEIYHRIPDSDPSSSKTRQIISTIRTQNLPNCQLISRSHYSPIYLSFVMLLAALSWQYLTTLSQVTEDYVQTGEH
# method summary: Inhibitory activities against squalene synthase
# condition description: microsome fraction from human hepatoma (Hep G2) cells; 10 μM [3H]-farnesyl pyrophosphate; pH 7.4; 37° C., 20 minutes; read-out: 50% inhibitory concentration against squalene synthase activity (IC50)
pIC50: −log10 of the molar value.
# pIC50 per record follows
parameter measured: pIC50

C[C@H](NC(=O)CC/C=C/C(=O)O)[C@@H](Cc1ccc(Cl)c(Cl)c1)c1ccc(-c2ccccc2)c(F)c1; 8.85
C[C@@H](NC(=O)CC(CC(=O)O)C(=O)O)[C@H](Cc1ccc2ccccc2c1)c1ccc(-c2ccccc2)cc1 (relative stereo); 8.33
C[C@H](NC(=O)C[C@H](CC(=O)O)C(=O)O)[C@@H](Cc1ccc(Cl)cc1)c1ccc(-c2ccccc2)cc1 [Example 46 (2R-form)]; 8.49

These entries and their values trace back to patent US5488149A.
